Target entity: SNF1 complex (Snf1(1-633)Gal83(1-417)Snf4(1-322)) (Saccharomyces cerevisiae, UniProt P12904)
Construct: full-length heterotrimer, His-tagged, expressed in E. coli, nickel-Sepharose; phosphorylated on Snf1 Thr210 by CaMKKbeta; with Carbon catabolite-derepressing protein kinase; SNF1 protein kinase subunit beta-3
Sequence (P12904 whole entry): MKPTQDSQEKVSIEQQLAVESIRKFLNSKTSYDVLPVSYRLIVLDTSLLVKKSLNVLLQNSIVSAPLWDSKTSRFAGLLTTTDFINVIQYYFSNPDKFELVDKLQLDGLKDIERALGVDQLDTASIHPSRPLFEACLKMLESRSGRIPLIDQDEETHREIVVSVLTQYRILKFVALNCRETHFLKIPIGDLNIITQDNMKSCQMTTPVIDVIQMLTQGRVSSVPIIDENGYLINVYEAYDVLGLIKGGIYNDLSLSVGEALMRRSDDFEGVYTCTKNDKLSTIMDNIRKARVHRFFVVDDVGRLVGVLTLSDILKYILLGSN
Sequence (P06782 whole entry partner): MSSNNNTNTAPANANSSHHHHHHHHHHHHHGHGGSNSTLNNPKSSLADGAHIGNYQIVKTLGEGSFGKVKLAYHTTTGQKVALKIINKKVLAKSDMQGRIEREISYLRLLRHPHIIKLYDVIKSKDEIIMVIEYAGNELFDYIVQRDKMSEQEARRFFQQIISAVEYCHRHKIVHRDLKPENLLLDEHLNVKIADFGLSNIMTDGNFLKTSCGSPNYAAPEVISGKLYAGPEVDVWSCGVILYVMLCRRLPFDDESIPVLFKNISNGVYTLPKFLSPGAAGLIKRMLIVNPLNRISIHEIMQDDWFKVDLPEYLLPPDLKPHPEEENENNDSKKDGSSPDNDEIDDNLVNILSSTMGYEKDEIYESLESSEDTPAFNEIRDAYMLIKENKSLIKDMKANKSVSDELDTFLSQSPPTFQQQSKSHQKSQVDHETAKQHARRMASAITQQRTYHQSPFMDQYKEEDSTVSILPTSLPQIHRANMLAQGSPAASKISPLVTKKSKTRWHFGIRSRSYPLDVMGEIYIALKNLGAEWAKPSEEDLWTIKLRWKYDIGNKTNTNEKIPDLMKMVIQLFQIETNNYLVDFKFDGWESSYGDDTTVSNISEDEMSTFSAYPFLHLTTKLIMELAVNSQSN
Sequence (Q04739 whole entry partner): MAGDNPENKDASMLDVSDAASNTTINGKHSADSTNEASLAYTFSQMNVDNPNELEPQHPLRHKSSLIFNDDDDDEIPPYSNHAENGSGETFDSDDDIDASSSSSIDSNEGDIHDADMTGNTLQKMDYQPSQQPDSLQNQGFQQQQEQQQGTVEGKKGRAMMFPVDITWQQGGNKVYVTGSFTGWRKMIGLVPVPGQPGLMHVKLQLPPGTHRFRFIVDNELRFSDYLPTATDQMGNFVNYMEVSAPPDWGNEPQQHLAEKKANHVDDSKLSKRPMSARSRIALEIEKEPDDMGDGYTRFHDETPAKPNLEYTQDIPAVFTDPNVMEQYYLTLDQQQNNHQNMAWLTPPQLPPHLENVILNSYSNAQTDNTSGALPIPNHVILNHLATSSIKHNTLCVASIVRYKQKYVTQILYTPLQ
Test method notes: fluorescence competition against NADH
Assay type: binding
Experimental conditions: phosphorylated SNF1; 20°C, 50 mM Tris pH 8, 100 mM NaCl, 1 mM TCEP; no Mg; tight site, competitive with NADH; error is SD; read-out: Kd (μM) / Versus C-AXPs
Kd values, listed per item
Write the value in µM as a bare number.

{"columns": ["Molecule", "Units text", "Kd"],
 "data": [
  ["Nc1ncnc2c1ncn2[C@@H]1O[C@H](COP(=O)(O)OP(=O)(O)O)[C@@H](O)[C@H]1O [ADP]", "µM", 72]
]}

Now consider the entry below.
Give Kd for Nc1ncnc2c1ncn2[C@@H]1O[C@H](COP(=O)(O)OP(=O)(O)OP(=O)(O)O)[C@@H](O)[C@H]1O [ATP]
120

Each recorded value in this set is attributed to paper PMC3241989.
